Target: Muscarinic acetylcholine receptor M1 (Homo sapiens)
Test: Cholinergic receptor muscarinic 1 (CHRM1) small molecule antagonists, cell-based qHTS assay (AID 1963588); also: % is scaled to controls: 0 for no effect and ±100 for the full control effect; nearly all actives have a fitted effect of over 40% in size
Conditions: CHRM1-CHO antagonist mode, calcium flux fluorescence; series mostly up to 61.5 µM
Results filed as inconclusive are left out. Active and inactive are the calls of the source. Calls follow the shape of the full dose curve.
# valid calls are active, inactive; nothing else

## Task Record request — test call for `CC(=O)c1ccccc1[N+](=O)[O-]`
## Result inactive

## Task Please give the result for `Cc1nnc(SCC2=C(C(=O)O)N3C(=O)[C@@H](NC(=O)Cn4cnnn4)[C@H]3SC2)s1` too.
## Result inactive

* * *

Molecular target: 5-hydroxytryptamine receptor 2A (Homo sapiens)
Test: 5-hydroxytryptamine receptor 2A (HTR2A) small molecule antagonists, cell-based qHTS assay (AID 1963586); also: % is scaled to controls: 0 for no effect and ±100 for the full control effect; nearly all actives have a fitted effect of over 45% in size
Conditions: HTR2A-CHO cells, DOI-induced calcium flux, fluorescence; series mostly up to 61.5 µM
Inconclusive results are not listed. Calls of active or inactive are those of the source. The call rests on the fitted dose curve.
# valid calls are yes (active), no (inactive); nothing else

{"compound": "CCOC(=O)OCC", "class.name": "no"}
{"compound": "O=C1CCCCC1C1CCCCC1 (stereo unspecified)", "class.name": "no"}
{"compound": "CC(CO)(CO)CO", "class.name": "no"}
{"compound": "Nc1ncn([C@H]2C[C@H](O)[C@@H](CO)O2)c(=O)n1", "class.name": "no"}
{"compound": "CCCCNC(=O)NCCCC", "class.name": "no"}

## Task Record request — test call for `Cc1nc(-c2ccccn2)ncc1C(=O)Nn1cc(C)c2cc(F)ccc21`
## Result no

## Task Please give the result for CCCCCC(C)O (stereo unspecified) too.
## Result no

## Task Please give the result for `O=C(/C=C/c1ccc([N+](=O)[O-])cc1)c1ccccc1` too.
## Result no

## Task Please give the result for `O=[N+]([O-])c1cccc(Cl)c1Cl` too.
## Result no

## Task Please give the result for CCCCC/C=C\C/C=C\CCCCCCCC(=O)NC(C)c1ccccc1 (stereo unspecified) too.
## Result no

* * *

Biological target: D(2) dopamine receptor (Homo sapiens) (UniProt P14416)
Sequence (P14416 whole entry, looked up): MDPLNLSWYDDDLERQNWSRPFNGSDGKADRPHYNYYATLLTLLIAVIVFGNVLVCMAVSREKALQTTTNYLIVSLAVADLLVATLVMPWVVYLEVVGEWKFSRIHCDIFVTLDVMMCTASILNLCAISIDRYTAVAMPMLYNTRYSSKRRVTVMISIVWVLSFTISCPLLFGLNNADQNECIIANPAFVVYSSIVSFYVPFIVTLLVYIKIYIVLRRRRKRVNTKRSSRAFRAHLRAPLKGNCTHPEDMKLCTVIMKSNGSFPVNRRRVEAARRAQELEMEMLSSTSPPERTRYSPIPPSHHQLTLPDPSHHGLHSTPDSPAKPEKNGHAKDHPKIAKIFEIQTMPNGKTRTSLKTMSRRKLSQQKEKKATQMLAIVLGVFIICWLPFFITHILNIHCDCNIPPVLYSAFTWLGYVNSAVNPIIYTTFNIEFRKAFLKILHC
Assay: Dopamine D2 receptor (DRD2) small molecule antagonists, cell-based qHTS assay (AID 1963595); also: % is scaled to controls: 0 for no effect and ±100 for the full control effect
Settings: HEK293-DRD2 cAMP HTRF antagonist mode; series mostly up to 92.4 µM
Results filed as inconclusive are left out. Calls of active or inactive are those of the source. Calls follow the shape of the dose curve; as a rule, active = well fitted inhibition curve with a large enough effect in the signal ratio in the repeat runs, with a control signal flat; inconclusive = weak or mixed curves, or effect the other way; inactive = flat fitted curve, though single readings scatter; the % refers to the signal ratio.
quantity: outcome

Past entries and their recorded results:
{"compound": "Cc1nnc(SCC2=C(C(=O)O)N3C(=O)[C@@H](NC(=O)Cn4cnnn4)[C@H]3SC2)s1", "outcome": "inactive"}
{"compound": "COc1ccc(OC)c(Cl)c1", "outcome": "inactive"}
{"compound": "CCCCCCOC(=O)c1ccccc1", "outcome": "inactive"}
{"compound": "CO[Si](C)(OC)OC", "outcome": "inactive"}
{"compound": "O=C(CS(=O)Cc1ccco1)NC/C=C\\COc1cc(CN2CCCCC2)ccn1 (configuration not stated)", "outcome": "inactive"}

## Task I'd like to know its outcome. The compound in question is `CC(=O)OCC(=O)[C@@]1(O)[C@H](OC(C)=O)C[C@H]2[C@@H]3CCC4=CC(=O)C=C[C@]4(C)[C@@]3(F)[C@@H](O)C[C@@]21C`
## Result inactive

## Task Please give the result for `O=C[C@@H](O)[C@H](O)[C@H](O)CO` too.
## Result inactive

## Task Please give the result for `Cc1cccc(Br)c1` too.
## Result inactive

## Task Please give the result for `C=CCCCCCCC=C` too.
## Result inactive

## Task Please give the result for `CCCCCCCC/C=C\CCCCCCCC(=O)N(CCO)CCO` too.
## Result inactive

## Task Please give the result for `CC(C)n1nc(-c2cc3cc(O)ccc3[nH]2)c2c(N)ncnc21` too.
## Result inactive

## Task Please give the result for `C=C[Si](OC(C)=O)(OC(C)=O)OC(C)=O` too.
## Result inactive

* * *

Experiment: p53 small molecule agonists, cell-based qHTS assay with rat liver microsomes: qHTS cell viability counter screen (AID 1963580); also: nearly all actives have a fitted effect of over 45% in size
Conditions: p53RE-bla HCT-116 + rat microsomes, ATP viability, 16 h; series mostly up to 66 µM
Results filed as inconclusive are left out. The source made the active and inactive calls. Calls follow the shape of the full dose curve.
# valid calls are y for active, n for inactive; nothing else

Example entries and their recorded answers appear below.
{"compound": "C=C(C)C(=O)OCCOCCOC(=O)C(=C)C", "class.name": "n"}
{"compound": "CCOc1ccc(NS(=O)(=O)c2ccc(N)cc2)nn1", "class.name": "n"}
{"compound": "C=C(C)C(=O)OCCOC1CC2CC1C1C=CCC21 (stereo unspecified)", "class.name": "n"}
{"compound": "CCCCCCCCCCCCCCCCCC[N+](C)(C)Cc1ccccc1", "class.name": "y"}
{"compound": "CO[C@]12C[C@@H](COC(=O)c3cncc(Br)c3)CN(C)[C@@H]1Cc1cn(C)c3cccc2c13", "class.name": "n"}
{"compound": "CC(C)O.CC(C)O.CCOC(=O)/C=C(\\C)O.CCOC(=O)/C=C(\\C)O.[Ti]", "class.name": "n"}
{"compound": "NC(N)=NN=C(/C=C/c1ccc([N+](=O)[O-])o1)/C=C/c1ccc([N+](=O)[O-])o1", "class.name": "n"}
{"compound": "COC(=O)C1=C(C)NC(C)=C(C(=O)OCCCN2CCC(c3ccccc3)(c3ccccc3)CC2)C1c1cccc([N+](=O)[O-])c1 (stereo unspecified)", "class.name": "n"}
{"compound": "OCCc1ccncc1", "class.name": "n"}
{"compound": "N#CCCOCCC#N", "class.name": "n"}

## Task Record request — test call for `Brc1cc(Br)c(Oc2cc(Br)c(Br)cc2Br)cc1Br`
## Result n

* * *

Experiment: p53 small molecule agonists, cell-based qHTS assay with human liver microsomes: qHTS cell viability counter screen (AID 1963579); also: nearly all actives have a fitted effect of over 45% in size; also: potency is read from the fitted curve at half-maximal effect
Conditions: p53RE-bla HCT-116 viability, ATP luminescence, 16 h, HLM; series mostly up to 66 µM
Records with an inconclusive call do not appear. Calls of active or inactive are those of the source. The call rests on the fitted dose curve.
quantity: Potency

{"compound": "SCCOCCOCCS", "Potency": "inactive"}
{"compound": "CCCCCCCOC(=O)c1ccc(O)cc1", "Potency": "36.4 µM (active)"}
{"compound": "CC(=O)OCC(C)OC(C)=O (stereo not drawn)", "Potency": "inactive"}
{"compound": "O=S1(=O)N=C(O)c2ccccc21", "Potency": "inactive"}
{"compound": "CCCCCCCC/C=C\\CCCCCCCC(=O)N(C)CC(=O)O", "Potency": "inactive"}

## Task I'd like to know its Potency. The compound in question is `CN(C)c1ccc(SC#N)cc1`
## Result inactive

## Task Please give the result for `Cc1nc2c([nH]1)c(=O)n(C)c(=O)n2Cc1ccco1` too.
## Result inactive

## Task Please give the result for CCCCC(CC)COC(=O)CCCCC(=O)OCc1ccccc1 (stereo not drawn) too.
## Result inactive

## Task Please give the result for `CCN(Cc1cccnc1)C(=O)c1cccc(Cl)c1[C@]1(C)C(=O)N(Cc2ccc(OC)cc2OC)c2ccc(Cl)cc21` too.
## Result inactive

## Task Please give the result for `CC(C)(C)c1ccc(C(=O)CCCN2CCC(OC(c3ccccc3)c3ccccc3)CC2)cc1` too.
## Result inactive

* * *

Target: Muscarinic acetylcholine receptor M1 (Homo sapiens) (UniProt P11229)
Sequence (P11229 whole entry, looked up): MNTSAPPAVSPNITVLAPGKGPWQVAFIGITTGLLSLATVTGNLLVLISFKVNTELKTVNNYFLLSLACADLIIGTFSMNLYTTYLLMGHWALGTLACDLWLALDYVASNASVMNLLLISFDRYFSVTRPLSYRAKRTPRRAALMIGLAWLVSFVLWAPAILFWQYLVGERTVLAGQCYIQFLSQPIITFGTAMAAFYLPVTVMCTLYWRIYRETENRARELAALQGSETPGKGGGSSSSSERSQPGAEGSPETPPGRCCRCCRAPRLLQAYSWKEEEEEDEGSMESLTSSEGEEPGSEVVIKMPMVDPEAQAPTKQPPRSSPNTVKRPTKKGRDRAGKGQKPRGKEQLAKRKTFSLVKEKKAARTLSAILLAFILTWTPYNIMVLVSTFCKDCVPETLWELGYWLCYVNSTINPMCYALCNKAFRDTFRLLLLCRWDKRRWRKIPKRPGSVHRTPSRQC
Assay: Cholinergic receptor muscarinic 1 (CHRM1) small molecule agonists, cell-based qHTS assay (AID 1963589); also: % is scaled to controls: 0 for no effect and ±100 for the full control effect; nearly all actives have a fitted effect of over 35% in size
Conditions: CHRM1-CHO cells, agonist mode, calcium flux fluorescence; series mostly up to 76.8 µM
Activity calls are given as the source filed them. Calls follow the shape of the full dose curve.
quantity: activation

{"molecule": "CCOc1ccc2nc(S(N)(=O)=O)sc2c1", "assayed.target": "Muscarinic acetylcholine receptor M1 (Homo sapiens) (UniProt P11229)", "activation": "inactive"}
{"molecule": "CC(=O)c1ccc2c(c1)[C@H](NC(=O)c1ccc(F)cc1)[C@@H](O)C(C)(C)O2", "assayed.target": "Muscarinic acetylcholine receptor M1 (Homo sapiens) (UniProt P11229)", "activation": "inactive"}
{"molecule": "C=CCc1cc(S(=O)(=O)c2ccc(O)c(CC=C)c2)ccc1O", "assayed.target": "Muscarinic acetylcholine receptor M1 (Homo sapiens) (UniProt P11229)", "activation": "inactive"}
{"molecule": "CC(C)OC(=O)CCC(=O)OC(C)C", "assayed.target": "Muscarinic acetylcholine receptor M1 (Homo sapiens) (UniProt P11229)", "activation": "inactive"}
{"molecule": "CCCCCCOC(=O)CC(CC(=O)OCCCCCC)(OC(=O)CCC)C(=O)OCCCCCC", "assayed.target": "Muscarinic acetylcholine receptor M1 (Homo sapiens) (UniProt P11229)", "activation": "inactive"}

## Task I'd like to know its activation. The molecule in question is `Oc1ccc(Cl)cc1C1CCCC1`
## Result inactive

## Task Please give the result for `CCCCCCCCCCCCCOC(=O)CCSCCC(=O)OCCCCCCCCCCCCC` too.
## Result -0.105% [at 15.8 µM] (inactive)

## Task Please give the result for `CC(C)c1nnc2ccc(-c3ocnc3-c3cc(F)ccc3F)cn12` too.
## Result inactive

## Task Please give the result for `O=c1[nH]c(=O)n([C@H]2C[C@H](O)[C@@H](CO)O2)cc1C(F)(F)F` too.
## Result inactive
